experiment: AUC (0 to last) in CD-1 mouse plasma at 25 mg/kg, sc by UPLC analysis; assay type: ADME, organism-based; design: dose 25 mg/kg, route subcutaneous, time 0 - last
ATTRIBUTE MEASURED: AUC(0-t)
Put down the number, then write its unit next to it.

Problem: # get_value(readout='AUC(0-t)', item= `O=C(NO)[C@H]1C[C@H](OC(=O)N2CCCC2)CC[C@@H]1C(=O)N1CCC(c2ccccc2)CC1` )
Solution: 18.4 µM·h

====

assay: AUC (0 to infinity) in CD-1 mouse plasma at 10 mg/kg, ip by UPLC analysis; type: ADME, organism-based; parameters: dose 10 mg/kg, route intraperitoneal, time infinity
ATTRIBUTE MEASURED: AUC(0-inf) (µM·h)
One number for each entry, in µM·h.

Problem: # get_value(readout='AUC(0-inf)', item= `O=C(NO)[C@H]1C[C@H](OC(=O)N2CCCC2)CC[C@@H]1C(=O)N1CCC(c2ccccc2)CC1` )
Solution: 3.07

====

experiment: Ratio of AUC (0 to infinity) in brain to plasma in CD-1 mouse at 25 mg/kg, sc by UPLC analysis; format: ADME, organism-based; conditions: read-out: Ratio AUC
ATTRIBUTE MEASURED: Kp
Give bare numbers.

Problem: # get_value(readout='Kp', item= `O=C(NO)[C@H]1C[C@H](OC(=O)N2CCCC2)CC[C@@H]1C(=O)N1CCC(c2ccccc2)CC1` )
Solution: 0.0693

====

target: Disintegrin and metalloproteinase domain-containing protein 10 (Homo sapiens); assay: Inhibition of recombinant human C-terminal His10-tagged ADAM10 (Thr214 to Glu672 residues) expressed in baculovirus infected Sf21 cells using McaKPLGL-Dpa-AR-NH2 as substrate by fluorescence spectrophotometric method
Sequence (O14672 whole entry, the tested form may be a part): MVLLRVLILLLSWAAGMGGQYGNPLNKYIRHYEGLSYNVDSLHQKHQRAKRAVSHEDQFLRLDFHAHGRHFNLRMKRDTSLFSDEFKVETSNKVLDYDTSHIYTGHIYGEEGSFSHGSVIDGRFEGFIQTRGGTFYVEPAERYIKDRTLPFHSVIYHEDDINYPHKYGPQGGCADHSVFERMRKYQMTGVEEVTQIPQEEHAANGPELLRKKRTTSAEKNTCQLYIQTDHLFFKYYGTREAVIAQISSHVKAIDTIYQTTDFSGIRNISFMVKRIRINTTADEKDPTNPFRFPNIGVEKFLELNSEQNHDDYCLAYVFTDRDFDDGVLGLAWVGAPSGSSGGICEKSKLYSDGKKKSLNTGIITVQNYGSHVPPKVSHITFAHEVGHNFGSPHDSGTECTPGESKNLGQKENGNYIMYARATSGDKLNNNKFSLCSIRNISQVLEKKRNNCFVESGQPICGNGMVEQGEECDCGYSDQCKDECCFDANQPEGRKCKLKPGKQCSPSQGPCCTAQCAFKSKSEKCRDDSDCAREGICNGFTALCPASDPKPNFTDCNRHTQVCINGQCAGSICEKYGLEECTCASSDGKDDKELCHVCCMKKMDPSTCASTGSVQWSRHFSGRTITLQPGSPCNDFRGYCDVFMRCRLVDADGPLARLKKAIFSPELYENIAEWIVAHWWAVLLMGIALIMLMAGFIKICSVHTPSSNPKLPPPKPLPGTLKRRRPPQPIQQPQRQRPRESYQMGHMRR
ATTRIBUTE MEASURED: pKi
Give bare numbers, as −log10 of the molar value.

Problem: # get_value(readout='pKi', item= `O=C(NO)[C@H]1C[C@H](OC(=O)N2CCCC2)CC[C@@H]1C(=O)N1CCC(c2ccccc2)CC1` )
Solution: 7.14

====

assay: Primary phase half life in CD-1 mouse brain at 10 mg/kg, ip by UPLC analysis; type: ADME, organism-based; settings: read-out: alphat1/2
ATTRIBUTE MEASURED: half-life (min)
One number for each entry, in min.

Problem: # get_value(readout='half-life', item= `O=C(NO)[C@H]1C[C@H](OC(=O)N2CCCC2)CC[C@@H]1C(=O)N1CCC(c2ccccc2)CC1` )
Solution: 28.8

====

experiment: AUC (0 to infinity) in CD-1 mouse plasma at 25 mg/kg, sc by UPLC analysis; type: ADME, organism-based; parameters: dose 25 mg/kg, route subcutaneous, time infinity
ATTRIBUTE MEASURED: AUC(0-inf) (µM·h)
Answers are plain numbers, in µM·h.

Problem: # get_value(readout='AUC(0-inf)', item= `O=C(NO)[C@H]1C[C@H](OC(=O)N2CCCC2)CC[C@@H]1C(=O)N1CCC(c2ccccc2)CC1` )
Solution: 18.5

====

target: Macrophage metalloelastase (Homo sapiens, UniProt P39900); assay: Inhibition of recombinant human MMP12 catalytic domain using Mca-PLGL-DpaAR-NH2 as substrate by fluorescence spectrophotometric method
Sequence (P39900 whole entry, the tested form may be a part): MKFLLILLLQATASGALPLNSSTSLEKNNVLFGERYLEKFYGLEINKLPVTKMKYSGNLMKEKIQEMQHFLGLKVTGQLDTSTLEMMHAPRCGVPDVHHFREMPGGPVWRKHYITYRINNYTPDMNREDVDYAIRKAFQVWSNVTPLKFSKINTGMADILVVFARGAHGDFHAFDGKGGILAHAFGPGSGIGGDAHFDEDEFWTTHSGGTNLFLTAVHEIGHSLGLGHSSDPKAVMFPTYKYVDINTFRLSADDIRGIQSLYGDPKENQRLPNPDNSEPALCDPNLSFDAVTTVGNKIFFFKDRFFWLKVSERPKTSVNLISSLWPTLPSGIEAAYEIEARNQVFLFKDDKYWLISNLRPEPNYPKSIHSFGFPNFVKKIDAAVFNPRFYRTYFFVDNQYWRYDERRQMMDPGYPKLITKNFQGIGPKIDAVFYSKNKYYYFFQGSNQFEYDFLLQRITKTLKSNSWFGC
Please respond with reported Ki for every item in the list.
Numbers only, in nM.

{"SMILES STRING": "O=C(NO)[C@H]1C[C@H](OC(=O)N2CCCC2)CC[C@@H]1C(=O)N1CCC(c2ccccc2)CC1", "Ki, nM": 270}

Problem: # get_value(readout='Ki', item= `CN1CC2(CC2)C[C@H](C(=O)NO)[C@H]1C(=O)N1CCN(c2ccc(C(F)(F)F)cn2)CC1` )
Solution: 29.5
